- System: SK-MEL-2 melanoma
- test_name: NCI tumour cell line growth inhibition, 48 h
measurement_label: TGI

Example entries and their recorded answers appear below.
- compound: "Cc1cc(=O)oc2cc(OCCCOc3ccc4c(C)cc(=O)oc4c3)ccc12"
  test_value: "> 100 µM"
- compound: "CC1(C)NC(=O)N(CCCCCCN2C(=O)NC(C)(C)C2=O)C1=O"
  test_value: "> 100 µM"
- compound: "COc1cccc2c1OC1Sc3ccccc3-c3nn(-c4ccccc4)c-2c31 (stereo not given)"
  test_value: "> 100 µM"
- compound: "Nc1nc(NCCOCP(=O)(O)O)c([N+](=O)[O-])c(=O)[nH]1"
  test_value: "> 100 µM"

Now for another entry.
query: Value lookup for TGI; key = Fc1cc(F)c(F)c(S)c1F
result: > 100 µM
